From: patent US20240025862A1

Test system: Glycine max (GLXMA)
Experiment: Post-emergence crop plant compatibility, greenhouse pot test
Assay type: in vivo
Details: 1.25 g/ha
Provide the recorded Post-emergence action against GLXMA in % for the entries that follow.
Reply with just the number (in %).

Prompt line: Entry CC(Oc1ccccc1Sc1cc(-n2c(=O)cc(C(F)(F)F)n(C)c2=O)c(F)cc1Cl)C(=O)OCC1CCCO1 (mixture of isomers) [I.2-71] has what Post-emergence action against GLXMA in %?
Response line: 10

Prompt line: Try the compound Cn1c(C(F)(F)F)cc(=O)n(-c2cc(Sc3ccccc3OCC(=O)OCC3CCOC3)c(Cl)cc2F)c1=O (racemic) [I.1-72]
Response line: 10

Prompt line: How about this compound: COCCOCCOC(=O)C(C)Oc1ccccc1Sc1cc(-n2c(=O)cc(C(F)(F)F)n(C)c2=O)c(F)cc1Cl (racemic) [I.2-23]
Response line: 0

Prompt line: Item: Cn1c(C(F)(F)F)cc(=O)n(-c2cc(Oc3ccccc3OCC(=O)OCc3ccccn3)c(C#N)cc2F)c1=O [I.9-276]
Response line: 0

Prompt line: Next record, please: COCCOC(=O)COc1ccccc1Oc1cc(-n2c(=O)cc(C(F)(F)F)n(C)c2=O)c(F)cc1Cl [I.7-1]
Response line: 10

Prompt line: Check CC(Oc1ccccc1Sc1cc(-n2c(=O)cc(C(F)(F)F)n(C)c2=O)c(F)cc1Cl)C(=O)OCC1CCOC1 (mixture of isomers) [I.2-72] too.
Response line: 0

Prompt line: Record: COCCOC(=O)COc1ccccc1Oc1cc(-n2c(=O)cc(C(F)(F)F)n(C)c2=O)c(F)cc1[N+](=O)[O-] [I.6-1]
Response line: 20

Prompt line: Can you check CC(Oc1ccccc1Sc1cc(-n2c(=O)cc(C(F)(F)F)n(C)c2=O)c(F)cc1Cl)C(=O)OCCO (racemic) [I.2-58] next?
Response line: 10

Prompt line: Next record, please: Cn1c(C(F)(F)F)cc(=O)n(-c2cc(Oc3ccccc3OCC(=O)OCC#N)c([N+](=O)[O-])cc2F)c1=O [I.6-176]
Response line: 20

Prompt line: Would you mind doing Cn1c(C(F)(F)F)cc(=O)n(-c2cc(Oc3ccccc3OCC(=O)OCc3ccccn3)c([N+](=O)[O-])cc2F)c1=O [I.6-276] as well?
Response line: 20

Prompt line: And for COCCOC(=O)C(C)Oc1ccccc1Sc1cc(-n2c(=O)cc(C(F)(F)F)n(C)c2=O)c(F)cc1Cl (racemic) [I.2-1] ?
Response line: 0

Prompt line: Follow-up item: CCOCCOC(=O)C(C)Oc1ccccc1Sc1cc(-n2c(=O)cc(C(F)(F)F)n(C)c2=O)c(F)cc1Cl (racemic) [I.2-2]
Response line: 0

Prompt line: And CCOCCOC(=O)COc1ccccc1Oc1cc(-n2c(=O)cc(C(F)(F)F)n(C)c2=O)c(F)cc1[N+](=O)[O-] [I.6-2] ?
Response line: 20

Prompt line: Could you do the same for CC(C#N)OC(=O)COc1ccccc1Oc1cc(-n2c(=O)cc(C(F)(F)F)n(C)c2=O)c(F)cc1Cl (stereo not shown) [I.7-177] , please?
Response line: 0

Prompt line: Item: COCCOCCOC(=O)COc1ccccc1Oc1cc(-n2c(=O)cc(C(F)(F)F)n(C)c2=O)c(F)cc1[N+](=O)[O-] [I.6-23]
Response line: 20

Prompt line: Try this compound next: COCCOC(=O)COc1ccccc1Sc1cc(-n2c(=O)cc(C(F)(F)F)n(C)c2=O)c(F)cc1Cl [I.1-1]
Response line: 0
